tested on: Escherichia coli; assay: Antibacterial activity against Escherichia coli after 16 hrs by serial dilution method; type: functional
assay-metric: MIC (µg/mL)
Give bare numbers, in µg/mL.

c1ccc(CN2CCC(Nc3ncnc4c3Cc3ccccc3O4)CC2)cc1 :: 3.12

Give me MIC for each of these molecules, listed below.
1. Clc1ccc(CNc2ncnc3c2Cc2ccccc2O3)cc1
2. c1ccc(CNc2ncnc3c2Cc2ccccc2O3)cc1
3. c1ccc2c(c1)Cc1c(NC34CC5CCCC(C3)C5C4)ncnc1O2 (stereo not given)

1. 50
2. 25
3. 50

Which MIC value belongs to `CO/N=C(\C(=O)N[C@@H]1C(=O)N2C(C(=O)O)=C(CSc3nc(=O)c(O)nn3C)CS[C@H]12)c1csc(N)n1` ?
1.61
